Tested system: T1, aggregated A-beta(1-40) peptide (BAA) (human)
T1 construct: also called A-beta peptide aggregates
Assay protocol: BAA ELISA
Readout type: EC50 (nM)
# output: bare number, implied unit nM

binder="reference VHH 2D2 (VHH, from WO2006/40153, made and purified like the other VHHs) VHH: AVQLVDSGGGLVQAGGSLRLSCAVSGGTFSSIGMGWFRQAPGKEREFVGAISRSGDSTYYADSVKGRFTISRDGAKNTVYLQMNSLKDEDTAVYYCAGRPAGTAINIRRSYNYWGQGTQVTVSS" endpoint_result=4.7
binder="ABII1E11 (VHH) VHH: EVQLVESGGGLVQPGGSLRLSCAASGRTFSDYNMGWFHQAPGKEREIVAAISRSGRSTYYTVSVEGRFTISRDNAKNTVDLEMNSLKPEDTGIYYCAANSAGRAINLPLYKYWGQGTQVTVSS" endpoint_result=19.2
binder="ABII14D4 (VHH) VHH: EVQLVESGGGLVQAGGSLRLSCAASGRTFSTYNMAWFRHAPGKEREFVAAISRSGGSTYYVDSVKGRFTISRDNAKNTVYLQMNSLKPEDTAIYYCAAAPRGRSIVTTATYDYWGQGTQVTVSS" endpoint_result=6.8

Please report the recorded EC50 for ABII35G2 (VHH) VHH: EVQLVESGGGLVQAGGSLRLSCVASGRTFSNYGMGWFRQAPGKDREFVAAISRSGGTTYYEDDVKGRFTISRDNAKNSVYLQMNSLKPEDTAVYYCAARPSYVAVNIAASYNNWGQGTQVTVSS .
5.4
